Assay: qHTS for Inhibitors of human tyrosyl-DNA phosphodiesterase 1 (TDP1): qHTS in cells in absence of CPT; further: nearly all actives have a fitted effect of over 55% in size
Details: DT40 Tdp1-/- hTDP1 cells, no CPT, ATP luminescence, 48 h
Out of some 420,000 compounds screened, about 64,000 (15%) were called active. Another 27% or so got no clear call; they are omitted. The call rests on the fitted dose curve; in most records, active means well fitted inhibition curve with a large enough effect; inconclusive means small, poorly fitted or top-dose-only effect; inactive means flat fitted curve, though single readings scatter. The list is a sample of the results.
Outcomes you can answer with include only these: TRUE = active, FALSE = inactive

I'd appreciate the recorded outcome for COc1cc(OC)c2c(-c3cccc(-c4cccc(N)c4)c3)cc(=O)oc2c1 from this test.
TRUE

I'd appreciate the recorded outcome for Cc1ccc(NC(=O)Cn2nc(C)c3ccccc3c2=O)c(C)c1 from this test.
FALSE

I'd appreciate the recorded outcome for Cc1ccc(-n2c(=O)c(C#N)cc3c(=O)n4ccccc4nc32)cc1C from this test.
TRUE

I'd appreciate the recorded outcome for Cc1ccc(NC(=O)CSc2nn3c(=O)c(C)nnc3s2)cc1Cl from this test.
FALSE

I'd appreciate the recorded outcome for Cc1ccc(NC(=O)COC(=O)CCc2nc3ccccc3n2-c2ccccc2)c(C)c1 from this test.
FALSE

I'd appreciate the recorded outcome for CC(=O)N(OCc1ccc(OC(C)C)c(Cl)c1)C(C)=O from this test.
FALSE

I'd appreciate the recorded outcome for Cc1nc2ccccn2c(=O)c1NC(=O)c1cccs1 from this test.
FALSE

I'd appreciate the recorded outcome for CCOc1ccc(S(=O)(=O)NCc2ccc3c(c2)OCO3)cc1C from this test.
FALSE

I'd appreciate the recorded outcome for O=C(COC(=O)c1cccnc1Cl)NC(=O)NC1CCCCC1 from this test.
FALSE

I'd appreciate the recorded outcome for O=C(COc1ccccc1)NCCc1nc2ccccc2[nH]1 from this test.
FALSE

I'd appreciate the recorded outcome for Cc1ccc(-n2c(SCC(=O)c3ccccc3)nc3c([nH]c4ccccc43)c2=O)cc1 from this test.
TRUE

I'd appreciate the recorded outcome for CCC(C)(C)NC(=O)C(c1ccccn1)N(C(=O)c1csnn1)c1ccccc1 (stereo not drawn) from this test.
FALSE

I'd appreciate the recorded outcome for CSCCC(NS(=O)(=O)c1ccc2c(c1)oc(=O)n2C)C(=O)NCc1ccccc1 (stereo not drawn) from this test.
FALSE

I'd appreciate the recorded outcome for O=C1/C(=C\c2ccc(O)cc2)CCC1CNc1ccc(Cl)cc1 (stereo not drawn) from this test.
TRUE

I'd appreciate the recorded outcome for CCc1cccc(CC)c1NC(=S)Nc1ccc2cn[nH]c2c1 from this test.
FALSE

I'd appreciate the recorded outcome for CC1CCN(C(=O)Cn2nnnc2CN2CCOCC2)CC1 from this test.
FALSE

I'd appreciate the recorded outcome for Cc1ccc(-n2ncc3c(Nc4cccc(C(=O)O)c4)ncnc32)cc1 from this test.
FALSE

I'd appreciate the recorded outcome for COc1ccc(C(=O)N[C@H](C(=O)NCc2ccccc2)C(C)C)cc1 from this test.
FALSE

I'd appreciate the recorded outcome for Cc1csc(=O)n1CCC(=O)OCC(=O)Nc1ccc(N2CCOCC2)cc1 from this test.
FALSE

I'd appreciate the recorded outcome for CCc1ccccc1NC(=S)N(CCN1CCCCCC1)Cc1ccco1 from this test.
FALSE

I'd appreciate the recorded outcome for Cc1cc(C)c(S(=O)(=O)Nc2c(C)n(C)n(-c3ccccc3)c2=O)cc1[N+](=O)[O-] from this test.
FALSE

I'd appreciate the recorded outcome for CC(C)C(NC(=O)C1CCC(C(C)(C)C)CC1)C(=O)NCCCN1CCCCC1 (stereo not drawn) from this test.
FALSE

I'd appreciate the recorded outcome for COc1cc(OC)cc(C(=O)N[C@H](C(=O)Nc2nc3ccccc3[nH]2)C(C)C)c1 from this test.
TRUE

I'd appreciate the recorded outcome for Cc1cccc(NC(=O)CSCC(=O)Nc2nnc(C3CC3)s2)c1 from this test.
FALSE

I'd appreciate the recorded outcome for O=c1[nH]nc(CSCc2ccccc2Cl)[nH]1 from this test.
FALSE

I'd appreciate the recorded outcome for COC(=O)C(C)Oc1ccc2c(-c3cccc([N+](=O)[O-])c3)cc(=O)oc2c1 (stereo not drawn) from this test.
FALSE

I'd appreciate the recorded outcome for Cc1cccc(NC(=O)CSc2nc3c(oc4ccccc43)c(=O)n2-c2ccc(F)cc2)c1 from this test.
FALSE

I'd appreciate the recorded outcome for O=S(=O)(c1ccc(Br)cc1)c1nc(-c2ccccc2)oc1NCc1cccnc1 from this test.
FALSE
